B1: RBBP5 (parent)
chain: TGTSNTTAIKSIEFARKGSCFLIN

Variants of: B1
Experiment: protein stability index of a GFP-peptide fusion (GPS, HEK-293T) (PSI 1-6); higher = more stable;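 further: lentivirally expressed fusions sorted by FACS into six bins by GFP to DsRed ratio, PSI derived from sequencing read proportions per bin multiplied by bin number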
Conditions: c terminus: a fixed tail appended
Attribute: protein stability index
Lab note: jot the number down without any unit.

Take a look at these entries with their results.
N24D    2.85
K17R    2.7
T7H    1.97

Entry under test: `T6L` . Its protein stability index was 2.16

Entry under test: `A15C` . Its protein stability index was 1.89

Entry under test: `K17H` . Its protein stability index was 2.33

Entry under test: `G18E` . Its protein stability index was 2.62

Entry under test: `T1F` . Its protein stability index was 1.88

Entry under test: `A8Y` . Its protein stability index was 2.22

Entry under test: `T7K` . Its protein stability index was 2.04

Entry under test: `T7C` . Its protein stability index was 1.26

Entry under test: `C20A` . Its protein stability index was 2.6

Entry under test: `C20F` . Its protein stability index was 1.9

Entry under test: `F21V` . Its protein stability index was 2.75
